Test system: DeltatarO mutant
experiment.notes: S. aureus survival, RN4220 and DeltatarO strains – OD600, teichoic acid synthesis inhibitors, primary screen (AID 463173)
condition.set: S. aureus RN4220 wild type/DeltatarO growth, OD600, 18 h, hits give low values, screened at 18.75 µg/mL (by protocol)
The campaign covered roughly 52,000 compounds. About 4,300 (8.3%) were called active. For the sample, actives were picked, then their nearest neighbours and some compounds at random.
measurement.type: survival

Batch request: survival for each of the following compounds.
1. COc1ccc(Cl)cc1NC(=O)CCCn1c(=O)c2cccn2c2cccnc21
2. Cc1nn(C)c(C)c1S(=O)(=O)N(CC(=O)Nc1ccc(F)cc1F)c1ccc(C(C)C)cc1
3. Cc1ccc(Cl)cc1NC(=O)CCCn1c(=O)c2cccn2c2ccccc21
4. COc1ccc(NC(=O)Cc2ccc(NC(=O)N3CCCCc4ccccc43)cc2)c(OC)c1

Output line:
1: 87% (inactive); 2: 94% (inactive); 3: 61% (inactive); 4: 47% (active)

Input line: For the compound shown here, CCN(CC)C(=O)COc1ccc2ccc(=O)oc2c1 , give the reported survival.
Output line: 84% (inactive)

---

System: DeltatarO mutant
experiment.notes: S. aureus survival, RN4220 and DeltatarO strains – OD600, teichoic acid synthesis inhibitors, primary screen (AID 463173)
condition.set: S. aureus RN4220 wild type/DeltatarO growth, OD600, 18 h, hits give low values, screened at 18.75 µg/mL (by protocol)
About 4,300 (8.3%) of roughly 52,000 compounds were called active. This is one part of a sample in which actives are shown more often than they occur.
Values of survival strictly less than 70% map to true (1), and values of at least 70% map to false (0).

Check out these entries, answers already filled in.
[
  {
    "compound": "C=C(C)Cn1c(SCC(=O)Nc2cccc(Cl)c2)nc2sc3c(c2c1=O)CCCC3",
    "qualitative.label": "false (0)"
  },
  {
    "compound": "COc1cccc(CNS(=O)(=O)c2cnc(N)nc2)c1",
    "qualitative.label": "true (1)"
  },
  {
    "compound": "COc1cc2nc(NCc3ccccc3)n3nc(-c4ccccc4)nc3c2cc1OC",
    "qualitative.label": "true (1)"
  },
  {
    "compound": "CCOC(=O)c1cc2c(=O)n3ccccc3nc2n(CCOC)c1=NC(=O)c1c(-c2ccccc2Cl)noc1C",
    "qualitative.label": "false (0)"
  },
  {
    "compound": "CCOCCCNc1nc2cc(OC)c(OC)cc2c2nc(-c3ccccc3)nn12",
    "qualitative.label": "true (1)"
  }
]

Input line: Here's an entry: Cc1ccc(NC(=O)CC2Nc3ccccc3NC2=O)cc1C (centres undefined) . Is its survival below 70%?
Output line: true (1)

Input line: Proceed to COc1ccc(CCC(=O)NCc2ccc3c(c2)CCN3C(=O)c2ccc(Cl)cc2)cc1
Output line: false (0)

Input line: Moving on to COc1ccc(Cl)cc1NC(=O)CCS(=O)(=O)c1nc(-c2cccs2)cc(C(F)(F)F)n1
Output line: true (1)

Input line: What do we get for Cc1ccc(C)c(OCc2nc3ccccc3n2C)c1 ?
Output line: true (1)

Input line: Query COc1cccc(NC(=O)CC2Nc3cc(C)c(C)cc3NC2=O)c1 (centres undefined) next
Output line: false (0)

Input line: Thanks! And COc1ccc(Cl)cc1NC(=O)CSc1nc(-c2cccs2)cc(C(F)(F)F)n1 ?
Output line: true (1)

Input line: Please do the same for COc1cc2nc(NCc3ccc(C)cc3)n3nc(-c4ccccc4)nc3c2cc1OC as well.
Output line: true (1)

---

Test system: DeltatarO mutant
experiment.notes: S. aureus survival, RN4220 and DeltatarO strains – OD600, teichoic acid synthesis inhibitors, primary screen (AID 463173)
condition.set: S. aureus RN4220 wild type/DeltatarO growth, OD600, 18 h, hits give low values, screened at 18.75 µg/mL (by protocol)
The whole screen tested about 52,000 compounds, of which about 4,300 (8.3%) were called active. What follows is part of a selection rich in actives, with near analogues and random picks from the rest.
measurement.type: survival (%)
Numbers only, in %.

Examples from the recorded data:
[
  {
    "molecule": "COc1ccc(OC)c(CNC(=O)Cc2ccc(NC(=O)N3CCCCc4ccccc43)cc2)c1",
    "survival (%)": 99
  },
  {
    "molecule": "NNC1=NC2CS(=O)(=O)CC2S1 (stereo unspecified)",
    "survival (%)": 56
  },
  {
    "molecule": "Cc1ccc2oc(=O)n(CCNC(=O)Nc3ccccc3C)c2c1",
    "survival (%)": 109
  },
  {
    "molecule": "COc1ccc(C)cc1NC(=O)Cc1ccc(NC(=O)N2CCCCc3ccccc32)cc1",
    "survival (%)": 67
  }
]

Could you report survival for every entry in the following list?
1. COc1ccc(Cl)cc1NC(=O)NCCn1c(=O)oc2ccc(C)cc21
2. COc1cc(C(=O)n2nc(C)c(Sc3ccc(Cl)cc3)c2C)cc(OC)c1OC

Output line:
1: 46; 2: 57

---

System: DeltatarO mutant
experiment.notes: S. aureus survival, RN4220 and DeltatarO strains – OD600, teichoic acid synthesis inhibitors, primary screen (AID 463173)
condition.set: S. aureus RN4220 wild type/DeltatarO growth, OD600, 18 h, hits give low values, screened at 18.75 µg/mL (by protocol)
Out of some 52,000 compounds screened, about 4,300 (8.3%) were called active. Shown is part of a subset that was picked to be rich in actives.
measurement.type: survival (%)
Numbers only, in %.

[
  {
    "compound": "O=C(Nc1nc2n(n1)C(c1ccccc1)C=C(c1ccccc1)N2)c1ccccc1 (stereo not given)",
    "reading.unit": "%",
    "survival": 109
  },
  {
    "compound": "O=C(Nc1nc2n(n1)C(c1ccc(F)cc1)C=C(c1ccccc1)N2)c1cccc([N+](=O)[O-])c1 (stereo not given)",
    "reading.unit": "%",
    "survival": 99
  },
  {
    "compound": "Cc1ccc(S(=O)(=O)NCCc2nnc3ccc(SCc4ccc(F)cc4)nn23)cc1",
    "reading.unit": "%",
    "survival": 112
  },
  {
    "compound": "CCn1cc(S(=O)(=O)c2ccccc2)c(=O)c2cc(F)c(N3CCCC3)cc21",
    "reading.unit": "%",
    "survival": 107
  }
]

Next compound, please.
Input line: For the compound CC(=O)Nc1nc2n(n1)C(c1ccc(F)cc1)C=C(c1ccc(Cl)cc1)N2 (stereo not given) , what survival is on record?
Output line: 59

---

Please provide measured survival for the entries that follow.
Tested on: DeltatarO mutant
experiment.notes: S. aureus survival, RN4220 and DeltatarO strains – OD600, teichoic acid synthesis inhibitors, primary screen (AID 463173)
condition.set: S. aureus RN4220 wild type/DeltatarO growth, OD600, 18 h, hits give low values, screened at 18.75 µg/mL (by protocol)
Out of some 52,000 compounds screened, about 4,300 (8.3%) were called active. The entries come from a sample that favours actives as a whole.

Solved cases below.
[
  {
    "molecule": "COc1ccc(NC(=O)CN(C)S(=O)(=O)c2cnc[nH]2)cc1Cl",
    "measured": "98% (inactive)"
  },
  {
    "molecule": "COc1ccccc1N1CCN(c2cc(C)nc3nc(-c4ccc(Cl)cc4)nn23)CC1",
    "measured": "38% (active)"
  },
  {
    "molecule": "COc1ccc2oc(-c3cccc(NC(=O)c4ccc(C#N)cc4F)c3)nc2c1",
    "measured": "79% (inactive)"
  },
  {
    "molecule": "CC(=O)Oc1ccc(C(=O)NC2CCSC2=O)cc1 (stereo not given)",
    "measured": "72% (inactive)"
  },
  {
    "molecule": "COc1ccccc1N1CCN(c2cc(C)nc3nc(-c4ccc(C)cc4)nn23)CC1",
    "measured": "40% (active)"
  }
]

Give survival for all molecules that follow.
1. Cc1ccc(SCC(=O)Nc2ccc3oc(-c4ccccc4C)nc3c2)cc1
2. COc1ccc(N2CCN(c3cc(C)nc4nc(-c5ccc(C)cc5)nn34)CC2)cc1
3. Cc1cc(N2CCN(c3cc(Cl)ccc3C)CC2)n2nc(-c3ccccc3)nc2n1
4. Cc1ccc(-c2nc3nc(C)cc(N4CCN(c5cccc(C)c5C)CC4)n3n2)cc1
5. O=C(Nc1ccc(-c2nc3cc(NC(=O)c4ccccc4Cl)ccc3o2)cc1)c1ccccc1Cl

Output line:
1. 50% (inactive)
2. 53% (inactive)
3. 77% (inactive)
4. 128% (inactive)
5. 83% (inactive)

---

Test system: DeltatarO mutant
experiment.notes: S. aureus survival, RN4220 and DeltatarO strains – OD600, teichoic acid synthesis inhibitors, primary screen (AID 463173)
condition.set: S. aureus RN4220 wild type/DeltatarO growth, OD600, 18 h, screened at 18.75 µg/mL (by protocol)
The campaign covered roughly 52,000 compounds. About 4,300 (8.3%) were called active. No stated cut-off is given here; in the data, active means survival mostly below about 52% (no sharp cut-off); inactive means mostly above about 56%. This excerpt belongs to a sample that is enriched for actives.
// allowed return values: class 1 = active, class 0 = inactive

[
  {
    "molecule": "Nc1ncnc2nc(SCCO)[nH]c12",
    "qualitative.label": "class 1"
  }
]

Now consider the entry below.
Input line: Hi, do you know how Cc1cc(C)n(C(=O)CNC(=O)Cc2ccccc2)n1 came out in this test?
Output line: class 0

Origin of values: PubChem BioAssay AID463173
